Biological target: CDK2/CyclinE (Homo sapiens (Human))
Test: CDK2/CyclinE kinase assay (Nanosyn, Caliper microfluidic)
Format: biochemical
Details: Table 2
TEST READOUT: Fold Selectivity (CDK2/CycE/CDK4)
Lab note: record the figure alone, no unit after it.

// worked examples, Fold Selectivity (CDK2/CycE/CDK4) included
compound CC1CN(c2ccc(Nc3ncc4cc5n(c4n3)C3(CCCCC3)CNC5=O)nc2)CCN1CCC(C)(C)C (stereo not shown) [G] , Fold Selectivity (CDK2/CycE/CDK4) observed: 1767

compound CC(C)C[C@@H]1CNC(=O)c2cc3cnc(Nc4ccc(N5CCNCC5)cn4)nc3n21 [WWW] , Fold Selectivity (CDK2/CycE/CDK4) observed: 135

Next:
compound CC(C)N1CCN(c2ccc(Nc3ncc4cc5n(c4n3)C3(CCCC3)CNC5=O)nc2)CC1 [III] , Fold Selectivity (CDK2/CycE/CDK4) observed: 626

compound CCN(CC)C1CCN(c2ccc(Nc3ncc4cc5n(c4n3)C3(CCCCC3)CNC5=O)nc2)C1 (stereo not shown) [QQ] , Fold Selectivity (CDK2/CycE/CDK4) observed: 746

====

Measured pIC50, listed per entry for reference.
Target: CDK2/CyclinE (Homo sapiens (Human), UniProt P24941)
Assay: CDK2/CyclinE kinase assay (Nanosyn, Caliper microfluidic)
Type: biochemical
Conditions: Table 2; read-out: CDK2/CycE IC50
Description: Selected compounds disclosed herein were tested in CDK4/cyclinD1, CDK6/CycD3 CDK2/CycA and CDK2/cyclinE kinase assays by Nanosyn (Santa Clara, Calif.) to determine their inhibitory effect on these CDKs. The assays were performed using microfluidic kinase detection technology (Caliper Assay Platform). The compounds were tested in 12-point dose-response format in singlicate at Km for ATP. […]
pIC50 (log units): -log10 of the concentration in mol/L.

Reading of pIC50 for `CC(C)C[C@@H]1CNC(=O)c2cc3cnc(Nc4ccc(N5CCN(C)CC5)cn4)nc3n21` with CDK2/CyclinE (Homo sapiens (Human), UniProt P24941): 5.18

Reading of pIC50 for `CC(C)[C@H]1CNC(=O)c2cc3cnc(Nc4ccc(N5CCNCC5)cn4)nc3n21` with CDK2/CyclinE (Homo sapiens (Human), UniProt P24941): 4.78

Reading of pIC50 for `CN1CCN(C(=O)c2ccc(Nc3ncc4cc5n(c4n3)C3(CCCC3)CNC5=O)nc2)CC1` with CDK2/CyclinE (Homo sapiens (Human), UniProt P24941): 6.73

Reading of pIC50 for `C[C@@H]1CN(c2ccc(Nc3ncc4cc5n(c4n3)C3(CCCCC3)CNC5=O)nc2)CCN1` with CDK2/CyclinE (Homo sapiens (Human), UniProt P24941): 5.46

Reading of pIC50 for `CN1CCN(c2ccc(Nc3ncc4cc5n(c4n3)C3(CCCC3)CNC5=O)nc2)CC1` with CDK2/CyclinE (Homo sapiens (Human), UniProt P24941): 5.00

Next:
Reading of pIC50 for `CN1CCN(c2ccc(Nc3ncc4cc5n(c4n3)C3(CCCCC3)CNC5=O)nc2)CC1(C)C` with CDK2/CyclinE (Homo sapiens (Human), UniProt P24941): 5.46

Reading of pIC50 for CCC(C)CN1CCN(c2ccc(Nc3ncc4cc5n(c4n3)C3(CCCC3)CNC5=O)nc2)CC1 (centres unmarked) [FFF] with CDK2/CyclinE (Homo sapiens (Human), UniProt P24941): 5.34

Reading of pIC50 for CCN(CC)C1CCN(c2ccc(Nc3ncc4cc5n(c4n3)C3(CCCCC3)CNC5=O)nc2)C1 (centres unmarked) with CDK2/CyclinE (Homo sapiens (Human), UniProt P24941): 5.51

====

Target: CDK4/CyclinD1 (Homo sapiens (Human))
Sequence (P11802 whole entry, species assumed): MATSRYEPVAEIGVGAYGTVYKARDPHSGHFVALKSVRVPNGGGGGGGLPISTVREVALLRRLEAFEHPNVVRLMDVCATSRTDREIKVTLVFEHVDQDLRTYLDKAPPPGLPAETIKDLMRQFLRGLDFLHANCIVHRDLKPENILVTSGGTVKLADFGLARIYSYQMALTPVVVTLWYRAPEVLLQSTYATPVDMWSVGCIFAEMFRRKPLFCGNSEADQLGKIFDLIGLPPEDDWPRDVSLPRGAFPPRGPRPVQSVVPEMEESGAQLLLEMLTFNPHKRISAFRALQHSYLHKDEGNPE
Sequence (P24385 whole entry partner, species assumed): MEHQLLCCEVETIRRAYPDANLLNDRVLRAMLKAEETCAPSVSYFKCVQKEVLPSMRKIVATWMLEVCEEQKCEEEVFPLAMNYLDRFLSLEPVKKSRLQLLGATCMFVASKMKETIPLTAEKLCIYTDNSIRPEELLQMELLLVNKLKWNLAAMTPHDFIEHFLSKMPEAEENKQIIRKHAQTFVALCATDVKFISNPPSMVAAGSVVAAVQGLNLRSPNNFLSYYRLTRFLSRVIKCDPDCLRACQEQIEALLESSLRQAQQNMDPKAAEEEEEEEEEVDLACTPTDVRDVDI
Assay: CDK4/CyclinD1 kinase assay (Nanosyn, Caliper microfluidic)
Format: biochemical
Details: Table 2; read-out: CDK4/CycD1 IC50
Lab note: cut-off is 4 nM. Strictly less in IC50 is 1. Exactly 4 nM or more is 0.

Known results for compounds:
# strict comparison: is reported IC50 < 4 nM? input = C[C@@H]1CN(c2ccc(Nc3ncc4cc5n(c4n3)C3(CCCCC3)CNC5=O)nc2)C[C@H](C)N1 [P]
1

# strict comparison: is reported IC50 < 4 nM? input = CC(C)(O)CN1CCN(c2ccc(Nc3ncc4cc5n(c4n3)C3(CCCC3)CNC5=O)nc2)CC1 [EEE]
1

# strict comparison: is reported IC50 < 4 nM? input = O=C1NCC2(CCCC2)n2c1cc1cnc(Nc3ccc(C(=O)N4CCN(CC5CC5)CC4)cn3)nc12 [OOO]
1

# strict comparison: is reported IC50 < 4 nM? input = CC(C)N1CCN(c2ccc(Nc3ncc4cc5n(c4n3)C3(CCCCC3)CNC5=O)nc2)CC1 [Compound GG]
1

Next:
# strict comparison: is reported IC50 < 4 nM? input = CC1CCN(C2CCN(c3ccc(Nc4ncc5cc6n(c5n4)C4(CCCCC4)CNC6=O)nc3)CC2)C1 (stereo not shown) [K]
1

# strict comparison: is reported IC50 < 4 nM? input = CCN(CC)C1CCN(c2ccc(Nc3ncc4cc5n(c4n3)C3(CCCC3)CNC5=O)nc2)C1 (stereo not shown) [UU]
0

# strict comparison: is reported IC50 < 4 nM? input = CCC(C)[C@@H]1CNC(=O)c2cc3cnc(Nc4ccc(N5CCN(C)CC5)cn4)nc3n21 (stereo partly shown) [VVV]
0

# strict comparison: is reported IC50 < 4 nM? input = CC(C)C1CN(c2ccc(Nc3ncc4cc5n(c4n3)C3(CCCCC3)CNC5=O)nc2)CCN1 (stereo not shown) [E]
1

# strict comparison: is reported IC50 < 4 nM? input = C[C@H](O)CN1CCN(c2ccc(Nc3ncc4cc5n(c4n3)C3(CCCCC3)CNC5=O)nc2)CC1 [A]
0

# strict comparison: is reported IC50 < 4 nM? input = CC(C)C[C@@H]1CNC(=O)c2cc3cnc(Nc4ccc(N5CCN(C)CC5)cn4)nc3n21 [XXX]
0
